Data provenance: PubChem BioAssay (NCI)

# Test system: DU-145 prostate
# protocol-text: NCI-60 one-dose screen, 48 h (100 = growth as untreated, 0 = no growth, -100 = all killed)
# experimental-setup: 10 µM unless noted
This is part of a sample that, as a whole, favours compounds with a hit. Of some 83,000 tested, about 20% had one in any assay.
Measured growth, listed per entry.
All answers are understood in %, so give the number only.

# get_value(readout='growth', item= `O=C(CCCCCCCCC(=O)N/N=C\c1cc(Cl)ccc1O)N/N=C\c1cc(Cl)ccc1O` ) 30.5

Lookup `CCCCCCCC/C=C\CCCCCCCCOc1ccccc1CC(=O)NCC[N+]1(C)CCCCC1` 67.1

Lookup `CCn1c2ccc(O)cc2c2c(C)c3c[n+](C(C)C)ccc3c(C)c21` 29.6

Lookup `CN(C)c1ccc(/C=C2/C=C(c3ccccc3)OC2=O)cc1` 101

Lookup `CCn1cc(C2=C(c3cn(C)c4ncccc34)C(=O)NC2=O)c2cccnc21` 80.1

Lookup COc1ccc(C2=Nc3c(N)ncnc3NC(c3cccc(Nc4ccnc5cc(C(F)(F)F)ccc45)c3)C2)cc1 (stereo not given) 80.2

Lookup `NC(=O)OCCn1cc(-c2nc(-c3c[nH]c4ncccc34)cs2)c2ccccc21` 64.9

Lookup `N#Cc1c(Nc2ccc(F)cc2)n[nH]c1-c1cccs1` 113

Lookup C#CC#CC#CC#CC#CC#CC#CC#CCC1OCC(COC(=O)O[C@@H](C(=O)O[C@H]2C[C@@]3(O)[C@@H](OC(=O)c4ccccc4)[C@@H]4[C@]5(OC(C)=O)CO[C@@H]5C[C@H](O)[C@@]4(C)C(=O)[C@H](OC(C)=O)C(=C2C)C3(C)C)[C@@H](NC(=O)c2ccccc2)c2ccccc2)O1 (stereo not given in full) 6.68

Lookup `COc1ccc(Cc2nnc(Nc3nc4ccccc4s3)s2)cc1` 109
